Every entry's value here was drawn from ChEMBL document CHEMBL1909046.

assay: DRUGMATRIX: Tumor Necrosis Factor (TNF), Non-Selective radioligand binding (ligand: [125I] TNF-alpha); assay type: cell membranes, Membrane; settings: u-937; Not Active = under 50% inhibition at 10 µM
Measured parameter: IC50

>>> data_value("O=[As][O-].[Na+] [SODIUM ARSENITE]")
"Not Active"
>>> data_value("CC(N)Cc1c[nH]c2ccc(OCc3cccs3)cc12 (stereo unspecified)")
"Not Active"
>>> data_value("C[N+]1(C)[C@@H]2C[C@@H](OC(=O)[C@H](CO)c3ccccc3)C[C@H]1[C@@H]1O[C@@H]12.[Br-] [METHSCOPOLAMINE BROMIDE]")
"Not Active"
>>> data_value("COc1cc(/C=C/C(=O)O)ccc1O [FERULATE]")
"Not Active"
>>> data_value("CCC1(c2ccccc2)C(=O)NC(=O)NC1=O")
"Not Active"
>>> data_value("CCN(CC)C(=S)SSC(=S)N(CC)CC")
"Not Active"
>>> data_value("CC[C@H]1OC(=O)[C@H](C)[C@@H](O[C@H]2C[C@@](C)(OC)[C@@H](O)[C@H](C)O2)[C@H](C)[C@@H](O[C@@H]2O[C@H](C)C[C@H](N(C)C)[C@H]2O)[C@](C)(O)C[C@@H](C)C(=O)[C@H](C)[C@@H](O)[C@]1(C)O")
"Not Active"
>>> data_value("CC(CN1c2ccccc2Sc2ccccc21)N(C)C (stereo unspecified)")
"Not Active"
>>> data_value("COc1cc(NC(C)CCCN)c2ncccc2c1 (stereo unspecified)")
"Not Active"
>>> data_value("C=CCN1CC[C@]23c4c5ccc(O)c4O[C@H]2/C(=N/N=C2\\CC[C@@]4(O)[C@H]6Cc7ccc(O)c8c7[C@@]4(CCN6CC=C)[C@H]2O8)CC[C@@]3(O)[C@H]1C5")
"Not Active"
>>> data_value("C=C(Cl)Cl")
"Not Active"
>>> data_value("CC1=C(/C=C/C(C)=C/C=C/C(C)=C/C(=O)O)C(C)(C)CCC1")
"Not Active"
>>> data_value("C#C[C@]1(O)CC[C@H]2[C@@H]3CCC4=CC(=O)CC[C@@H]4[C@H]3CC[C@@]21C")
"Not Active"
>>> data_value("CCN(CC)CCNC(=O)c1cc(Cl)c(N)cc1OC [METOCLOPRAMIDE]")
"Not Active"
>>> data_value("C[C@H](C(=O)O)c1ccc2oc(-c3ccc(F)cc3)nc2c1")
"Not Active"
>>> data_value("CCN1C[C@]2(COC)[C@H](O)C[C@H](OC)[C@@]34[C@@H]5C[C@@]6(O)[C@H](OC(=O)c7ccccc7)[C@@H]5[C@@](OC(C)=O)([C@@H]([C@H](OC)[C@H]23)[C@@H]14)[C@@H](O)[C@@H]6OC")
"Not Active"

----------
biological target: Cytochrome P450 1A2 (Homo sapiens, UniProt P05177); conditions: bti-tn-5b1-4; note: in other assays of this panel Not Active means under 50% inhibition at 10 µM
Sequence (P05177 whole entry): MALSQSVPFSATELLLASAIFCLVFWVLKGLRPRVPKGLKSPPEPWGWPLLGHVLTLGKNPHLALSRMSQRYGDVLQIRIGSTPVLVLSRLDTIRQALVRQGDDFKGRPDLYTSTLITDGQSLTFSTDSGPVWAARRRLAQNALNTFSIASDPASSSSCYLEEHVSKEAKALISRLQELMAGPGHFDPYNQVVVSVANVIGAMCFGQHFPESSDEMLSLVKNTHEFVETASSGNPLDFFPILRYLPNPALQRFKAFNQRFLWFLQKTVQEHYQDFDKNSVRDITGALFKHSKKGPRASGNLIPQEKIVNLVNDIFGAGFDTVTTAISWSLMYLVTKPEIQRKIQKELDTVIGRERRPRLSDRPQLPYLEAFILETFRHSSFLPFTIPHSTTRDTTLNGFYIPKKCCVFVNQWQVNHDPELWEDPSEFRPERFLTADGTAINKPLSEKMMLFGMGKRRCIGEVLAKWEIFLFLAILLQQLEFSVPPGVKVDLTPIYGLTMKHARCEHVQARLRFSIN
Measured parameter: Ki

>>> data_value("Cc1ccc(Cl)c(Nc2ccccc2C(=O)O)c1Cl [MECLOFENAMIC ACID]")
"Not Active"
>>> data_value("O=c1[nH]cnc2c1ncn2[C@H]1CC[C@@H](CO)O1 [DIDANOSINE]")
"Not Active"
>>> data_value("CO[C@@H]1[C@@H](OC)[C@H](C)[C@@](O)(CC(=O)O)O[C@H]1[C@H](C)[C@H]1O[C@@]2(CC[C@@](C)([C@H]3CC[C@@](C)([C@@H]4O[C@@H]([C@H]5O[C@](C)(O)[C@H](C)C[C@@H]5C)C[C@@H]4O[C@@H]4C[C@H](OC)[C@@H](OC)[C@H](C)O4)O3)O2)C[C@H](O)[C@H]1C.N [MADURAMICIN]")
"Not Active"
>>> data_value("CC(C)Cc1ccc([C@H](C)C(=O)O)cc1 [DEXIBUPROFEN]")
"Not Active"
>>> data_value("CCN1CCN(C(=O)N[C@@H](C(=O)N[C@@H]2C(=O)N3[C@@H]2SC(C)(C)[C@@H]3C(=O)O)c2ccccc2)C(=O)C1=O [PIPERACILLIN]")
"Not Active"
>>> data_value("CC1=C(/C=C/C(C)=C/C=C/C(C)=C/C(=O)O)C(C)(C)CCC1 [TRETINOIN]")
"Not Active"
>>> data_value("NC(=O)CN1CCCC1=O")
"Not Active"
>>> data_value("COc1ccc(Cl)cc1C(=O)NCCc1ccc(S(=O)(=O)NC(=O)NC2CCCCC2)cc1 [GLYBURIDE]")
"Not Active"

----------
molecular target: Interstitial collagenase (Homo sapiens, UniProt P03956); experiment: biochemical; type: tissue-based, Rheumatoid synovial fibroblasts;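 note: MMP-1 enzyme inhibition assay using a peptide substrate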; note: in other assays of this panel Not Active means under 50% inhibition at 10 µM
Sequence (P03956 whole entry): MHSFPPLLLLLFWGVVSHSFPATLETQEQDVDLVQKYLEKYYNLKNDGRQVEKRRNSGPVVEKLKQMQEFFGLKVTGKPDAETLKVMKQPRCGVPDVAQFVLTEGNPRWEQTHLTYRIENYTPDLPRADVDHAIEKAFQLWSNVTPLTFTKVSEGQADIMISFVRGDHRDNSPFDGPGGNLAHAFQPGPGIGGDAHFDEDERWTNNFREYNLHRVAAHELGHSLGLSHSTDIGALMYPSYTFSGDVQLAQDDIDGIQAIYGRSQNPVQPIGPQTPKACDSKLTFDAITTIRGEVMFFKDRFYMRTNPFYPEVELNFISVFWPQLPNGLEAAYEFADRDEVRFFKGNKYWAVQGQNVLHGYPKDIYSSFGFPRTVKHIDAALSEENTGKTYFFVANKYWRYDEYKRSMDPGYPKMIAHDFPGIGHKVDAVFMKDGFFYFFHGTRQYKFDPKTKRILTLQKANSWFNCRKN
Measured parameter: Ki

>>> data_value("POVIDONE")
"Not Active"
>>> data_value("COPPER(II) OXIDE")
"Not Active"
>>> data_value("CHROMIC CHLORIDE")
"Not Active"
>>> data_value("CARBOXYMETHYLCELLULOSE")
"Not Active"
>>> data_value("LEAD(IV) ACETATE")
"Not Active"

----------
molecular target: Vascular endothelial growth factor receptor 1 (Homo sapiens); assay type: cell-based; conditions: huvec; note: in other assays of this panel Not Active means under 50% inhibition at 10 µM
Sequence (P17948 whole entry): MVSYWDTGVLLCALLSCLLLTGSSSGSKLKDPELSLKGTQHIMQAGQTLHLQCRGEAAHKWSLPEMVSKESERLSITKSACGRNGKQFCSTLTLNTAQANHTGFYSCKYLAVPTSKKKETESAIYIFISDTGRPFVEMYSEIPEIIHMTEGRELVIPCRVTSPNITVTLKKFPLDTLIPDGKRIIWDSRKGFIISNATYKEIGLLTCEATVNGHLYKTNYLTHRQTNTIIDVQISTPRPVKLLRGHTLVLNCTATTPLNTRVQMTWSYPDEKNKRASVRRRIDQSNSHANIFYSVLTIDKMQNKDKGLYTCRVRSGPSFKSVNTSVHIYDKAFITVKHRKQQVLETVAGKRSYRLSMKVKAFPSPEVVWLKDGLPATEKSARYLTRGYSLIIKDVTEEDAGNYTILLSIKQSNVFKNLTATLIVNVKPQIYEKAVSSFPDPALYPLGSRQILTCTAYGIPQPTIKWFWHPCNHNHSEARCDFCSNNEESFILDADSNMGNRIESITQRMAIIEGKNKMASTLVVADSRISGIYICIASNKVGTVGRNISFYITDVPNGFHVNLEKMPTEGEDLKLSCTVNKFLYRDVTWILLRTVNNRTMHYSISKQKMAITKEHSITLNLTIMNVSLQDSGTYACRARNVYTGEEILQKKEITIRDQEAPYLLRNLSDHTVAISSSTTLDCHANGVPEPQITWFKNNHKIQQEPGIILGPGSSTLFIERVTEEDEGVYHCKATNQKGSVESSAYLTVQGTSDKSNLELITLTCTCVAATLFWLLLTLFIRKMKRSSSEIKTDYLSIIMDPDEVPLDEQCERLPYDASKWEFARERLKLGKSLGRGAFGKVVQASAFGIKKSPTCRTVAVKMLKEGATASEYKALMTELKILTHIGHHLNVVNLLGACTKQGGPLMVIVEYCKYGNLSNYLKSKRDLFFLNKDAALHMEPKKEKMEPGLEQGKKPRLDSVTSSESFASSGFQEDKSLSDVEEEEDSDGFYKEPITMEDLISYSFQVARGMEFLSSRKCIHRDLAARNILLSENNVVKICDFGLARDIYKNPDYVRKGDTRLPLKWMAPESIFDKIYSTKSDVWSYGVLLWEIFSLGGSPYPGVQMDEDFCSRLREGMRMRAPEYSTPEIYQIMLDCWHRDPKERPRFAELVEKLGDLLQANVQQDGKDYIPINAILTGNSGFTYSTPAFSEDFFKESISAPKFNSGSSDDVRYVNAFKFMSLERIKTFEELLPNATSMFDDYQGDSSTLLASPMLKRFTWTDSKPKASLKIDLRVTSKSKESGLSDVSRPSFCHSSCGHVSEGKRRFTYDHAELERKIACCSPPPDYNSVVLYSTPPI
Measured parameter: IC50

>>> data_value("Nc1ccc(C(=O)O)c(O)c1")
"Not Active"
>>> data_value("CC#C[C@]1(O)CC[C@H]2[C@@H]3CCC4=CC(=O)CCC4=C3[C@@H](c3ccc(N(C)C)cc3)C[C@@]21C")
"Not Active"
>>> data_value("CN1C(=O)OC(C)(C)C1=O")
"Not Active"
>>> data_value("OC[C@H]1O[C@@H]2O[C@H]3[C@H](O)[C@@H](O)[C@@H](O[C@H]4[C@H](O)[C@@H](O)[C@@H](O[C@H]5[C@H](O)[C@@H](O)[C@@H](O[C@H]6[C@H](O)[C@@H](O)[C@@H](O[C@H]7[C@H](O)[C@@H](O)[C@@H](O[C@H]8[C@H](O)[C@@H](O)[C@@H](O[C@H]1[C@H](O)[C@H]2O)O[C@@H]8CO)O[C@@H]7CO)O[C@@H]6CO)O[C@@H]5CO)O[C@@H]4CO)O[C@@H]3CO")
"Not Active"
>>> data_value("OC[C@@H](O)[C@@H](O)[C@H](O)[C@H](O)CO")
"Not Active"
>>> data_value("O=C(NCCN1CCOCC1)c1ccc(Cl)cc1 [MOCLOBEMIDE]")
"Not Active"
>>> data_value("CCC(C)(C)C(=O)O[C@H]1C[C@@H](C)C=C2C=C[C@H](C)[C@H](CC[C@@H]3C[C@@H](O)CC(=O)O3)[C@H]21")
"Not Active"
>>> data_value("Oc1ccc(/C=C/c2cc(O)cc(O)c2)cc1")
"Not Active"
>>> data_value("CC1=C(/C=C/C(C)=C/C=C/C(C)=C/C(=O)O)C(C)(C)CCC1")
"Not Active"
>>> data_value("O=C(Nc1ccc(Cl)c(Cl)c1)c1cc(Cl)cc(Cl)c1O [3,3',4',5-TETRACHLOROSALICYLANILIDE]")
"Not Active"
>>> data_value("CC(C)Cn1cnc2c(N)nc3ccccc3c21")
"Not Active"
>>> data_value("CN(C)CCC=C1c2ccccc2COc2ccccc21 [DOXEPIN]")
"Not Active"
>>> data_value("CCO")
"Not Active"
>>> data_value("Cc1nnc(NS(=O)(=O)c2ccc(N)cc2)s1")
"Not Active"
>>> data_value("CC[C@H](C)C(=O)O[C@H]1CCC=C2C=C[C@H](C)[C@H](CC[C@@H]3C[C@@H](O)CC(=O)O3)[C@H]21")
"Not Active"

----------
experiment: DRUGMATRIX: Glutamate, NMDA, Agonism radioligand binding (ligand: [3H] CGP-39653); format: cell membranes, Rattus norvegicus, Wistar, Cerebral cortex, Membrane; conditions: Not Active = under 50% inhibition at 10 µM
Measured parameter: IC50

>>> data_value("CC#C[C@]1(O)CC[C@H]2[C@@H]3CCC4=CC(=O)CCC4=C3[C@@H](c3ccc(N(C)C)cc3)C[C@@]21C [MIFEPRISTONE]")
"Not Active"
>>> data_value("O=C(O)CCc1nc(-c2ccccc2)c(-c2ccccc2)o1 [OXAPROZIN]")
"Not Active"
>>> data_value("CC(C)Cn1cnc2c(N)nc3ccccc3c21 [IMIQUIMOD]")
"Not Active"
>>> data_value("C=CCc1ccc2c(c1)OCO2 [SAFROLE]")
"Not Active"
>>> data_value("CN1C[C@H](CNC(=O)OCc2ccccc2)C[C@@H]2c3cccc4c3c(cn4C)C[C@H]21 [METERGOLINE]")
"Not Active"
>>> data_value("Cc1ccnc(NS(=O)(=O)c2ccc(N)cc2)n1 [SULFAMERAZINE]")
"Not Active"
>>> data_value("CCOC(=O)C1=C(C)NC(C)=C(C(=O)OCC)C1c1ccccc1/C=C/C(=O)OC(C)(C)C [LACIDIPINE]")
"Not Active"
>>> data_value("CC[C@@]1(O)C(=O)OCc2c1cc1n(c2=O)Cc2cc3c(CN(C)C)c(O)ccc3nc2-1 [TOPOTECAN]")
"Not Active"
>>> data_value("O=C(O)COC(=O)Cc1ccccc1Nc1c(Cl)cccc1Cl [ACECLOFENAC]")
"Not Active"
>>> data_value("CCN(CC)N=O [N-NITROSODIETHYLAMINE]")
"Not Active"
>>> data_value("OC[C@H]1OC2C3[C@@H](CO)OC(O[C@H]4[C@H](O)[C@@H](O)[C@@H](O[C@H]5[C@H](O)[C@@H](O)[C@@H](O[C@H]6[C@H](O)[C@@H](O)[C@@H](O[C@H]7[C@H](O)[C@@H](O)[C@@H](O[C@H]8[C@H](O)[C@@H](O)[C@@H](O[C@H]9[C@H](O)[C@@H](O)C(OC1[C@H](O)[C@H]2O)O[C@@H]9CO)O[C@@H]8CO)O[C@@H]7CO)O[C@@H]6CO)O[C@@H]5CO)O[C@@H]4CO)[C@H](O)[C@H]3O")
"Not Active"
>>> data_value("COc1cc([C@@H]2c3cc4c(cc3[C@H](O)[C@H]3COC(=O)[C@H]23)OCO4)cc(OC)c1OC [PODOFILOX]")
"Not Active"
>>> data_value("NCC(CC(=O)O)c1ccc(Cl)cc1 (stereo not given) [BACLOFEN]")
"Not Active"
>>> data_value("Nc1nc(N)c2nc(CNc3ccc(C(=O)N[C@@H](CCC(=O)O)C(=O)O)cc3)cnc2n1 [AMINOPTERIN]")
"Not Active"
>>> data_value("CS(=O)(=O)c1ccc(C2=C(c3ccccc3)C(=O)OC2)cc1 [ROFECOXIB]")
"Not Active"
